Every entry's value here was drawn from PubChem BioAssay (EPA / NIEHS).

# method summary: CCTE_Padilla_ZF_Score.General: CCTE's 144 Hour Post-fertilization zebrafish Assay Score for General Malformation, Padilla Lab (AID 2284411)
Activity calls are given as the source filed them. The calls were made as follows: active = hit-call score of the fitted dose curve at least 0.9, where 1 is the maximum; inactive = score below 0.9.
Select the matching outcome among active, inactive

CC(C)CCCCCCCOC(=O)c1ccccc1C(=O)OCCCCCCCC(C)C ... inactive
C=CC(=O)OCC(CC)CCCC (stereo not drawn) ... inactive
CC(C)COP(=O)(OCC(C)C)OCC(C)C ... inactive
CCCOC(=O)c1ccccc1C(=O)OCCC ... inactive
c1ccc(Nc2ccc3ccccc3c2)cc1 ... inactive

Query block: # fetch the recorded call for O=S(=O)(c1ccccc1)c1ccccc1 here
Result block: inactive

Query block: # fetch the recorded call for O=C1C=CC(=O)C=C1 here
Result block: inactive

Query block: # fetch the recorded call for Cc1ccc(OP(=O)(Oc2ccc(C)cc2)Oc2ccc(C)cc2)cc1 (tested in a mixture with another compound) here
Result block: active

###

# assay system: Cellular tumor antigen p53 (Homo sapiens)
# method summary: TOX21_p53_BLA_p3_ratio: Tox21 HCT-116 p53 Agonism Beta-lactamase Assay, Ratio, Phase 3 (AID 2283596)
Records with an inconclusive call do not appear. Activity calls are given as the source filed them. How the source made its calls: active means hit-call score of the fitted dose curve at least 0.9, where 1 is the maximum; inconclusive means response in the unintended direction; inactive means score below 0.9.
Select the matching outcome among Yes = active, No = inactive

O=[N+]([O-])c1cc(I)c(O)c(I)c1 ... Yes
NNC(=O)c1ccccc1 ... No
c1ccc2c(c1)Sc1ccccc1N2C[C@@H]1CN2CCC1CC2 ... No
CC(C)NC(C)C ... No
O=C(O)CC[N+](=O)[O-] ... No
BrCC(Br)C1CCC(Br)C(Br)C1 (stereo not given) ... No

Query block: # fetch the recorded call for CCCCCCCCCCCCN=C(N)N here
Result block: No

Query block: # fetch the recorded call for C=C(C)CCl here
Result block: No

Query block: # fetch the recorded call for O=C(Cl)c1ccccc1 here
Result block: No

Query block: # fetch the recorded call for Nc1nc(N)nc(N)n1 here
Result block: No

Query block: # fetch the recorded call for Oc1cc(Cl)cc(Cl)c1 here
Result block: No

Query block: # fetch the recorded call for O=[N+]([O-])c1ccc(CCl)cc1 here
Result block: No

Query block: # fetch the recorded call for O=C(NC(=O)c1c(F)cccc1F)Nc1ccc(Oc2ccc(C(F)(F)F)cc2Cl)cc1F here
Result block: No

Query block: # fetch the recorded call for Nc1ccccc1-c1ccccc1 here
Result block: No

Query block: # fetch the recorded call for NC1(c2ccccc2)CCCCC1 here
Result block: No

###

# assay system: human Fibroblast Growth Factor Receptor 1 (FGFR1), FGFR1 (gene 2260)
# method summary: NVS_ENZ_hFGFR1: NovaScreen (NVS) Enzymatic Assay for human Fibroblast Growth Factor Receptor 1 (FGFR1) (AID 2283159)
Results filed as inconclusive are left out. Active and inactive are the calls of the source. How the source made its calls: active means hit-call score of the fitted dose curve at least 0.9, where 1 is the maximum; inconclusive means response in the unintended direction; inactive means score below 0.9.
Select the matching outcome among true (1) = active, false (0) = inactive

Example cases with answers are listed next.
CC/C(=C(\c1ccccc1)c1ccc(OCCN(C)C)cc1)c1ccccc1 ... true (1)
Oc1ccc(C(c2ccc(O)cc2)C(Cl)(Cl)Cl)cc1 ... true (1)
CC(C)(O)c1ccc(CNC(=O)c2cccnc2Oc2ccc(F)cc2)cc1 ... false (0)
Cc1ncc([C@@H](CCCCCCc2ccc3c(n2)NCCC3)CC(=O)O)cn1 ... false (0)
COCCO ... false (0)

Now look at this entry.
Query block: # fetch the recorded call for CCc1cccc(CC)c1N here
Result block: false (0)

###

# Read-out: CD40, CD40 (gene 958)
# method summary: BSK_LPS_CD40: BioMAP Diversity Plus: LPS Assay for CD40 Biomarker Activity (AID 2283076)
# conditions used: primary human HUVEC with PBMC; actives raise or lower the signal
The source made the active and inactive calls. How the source made its calls: active means hit-call score of the fitted dose curve at least 0.9, where 1 is the maximum; inactive means score below 0.9.
readout kind: AC50

O=[N+]([O-])c1ccc(Cl)cc1 ... inactive
CNC(=O)Oc1cc(C)c(SC)c(C)c1 ... 20 µM (active)
O=[N+]([O-])C=Cc1ccccc1 ... 5.97 µM (active)
CC(C)CCCCCCCOP(=O)(Oc1ccccc1)Oc1ccccc1 ... 11.3 µM (active)
O=c1[nH]c(Cl)c(Cl)cc1Cl ... inactive
N#CCCCCC#N ... inactive
O=[N+]([O-])O ... inactive
c1ccc(Nc2ccc3ccccc3c2)cc1 ... inactive

Query block: Specify measured AC50 for CC(C)COP(=O)(OCC(C)C)OCC(C)C .
Result block: inactive

Query block: Specify measured AC50 for COc1ccc(CO)cc1 .
Result block: inactive

Query block: Specify measured AC50 for CC1(C)[C@H](C(=O)O[C@H](C#N)c2cccc(Oc3ccccc3)c2)[C@@H]1C=C(Br)Br .
Result block: inactive

Query block: Specify measured AC50 for Clc1ccc(-c2ccccc2)cc1 .
Result block: inactive

Query block: Specify measured AC50 for O=C1C(Cl)=C(Cl)C(=O)C(Cl)=C1Cl .
Result block: 15.1 µM (active)

Query block: Specify measured AC50 for CC(C)(C)C(O)C(Oc1ccc(-c2ccccc2)cc1)n1cncn1 (stereo not drawn) .
Result block: inactive

Query block: Specify measured AC50 for CCC(C)c1cc([N+](=O)[O-])cc([N+](=O)[O-])c1OC(=O)C=C(C)C (stereo not drawn) .
Result block: 7.46 µM (active)

Query block: Specify measured AC50 for COC(C)(C)CCC[C@H](C)C/C=C/C(C)=C/C(=O)OC(C)C .
Result block: 20 µM (active)

Query block: Specify measured AC50 for CCCOC(=O)c1ccccc1C(=O)OCCC .
Result block: inactive

Query block: Specify measured AC50 for Cc1ccc(OP(=O)(Oc2ccc(C)cc2)Oc2ccc(C)cc2)cc1 (tested in a mixture with another compound) .
Result block: 7.66 µM (active)

Query block: Specify measured AC50 for CC(=O)/C=C/c1ccccc1 .
Result block: 20 µM (active)

###

# method summary: CEETOX_H295R_CORTIC: CeeTox H295R High-throughput Steroidogenesis Assay for Corticosterone (CORTIC) (AID 2283437);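 also: corticosterone secreted into medium quantified by mass spectrometry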
# conditions used: actives raise or lower the signal
Active and inactive are the calls of the source. The calls were made as follows: active = hit-call score of the fitted dose curve at least 0.9, where 1 is the maximum; inactive = score below 0.9.
Select the matching outcome among active, inactive

Example cases with answers are listed next.
Cc1ccc(OP(=O)(Oc2ccc(C)cc2)Oc2ccc(C)cc2)cc1 (tested in a mixture with another compound) ... inactive
Cc1cc(C)c(C2=C(OC(=O)CC(C)(C)C)C3(CCCC3)OC2=O)c(C)c1 ... inactive
CC(Cc1ccc(C(C)(C)C)cc1)CN1C[C@@H](C)O[C@@H](C)C1 (some centres not stated) ... inactive
C=CC(=O)OCCO ... inactive
O=CNC(N1CCN(C(NC=O)C(Cl)(Cl)Cl)CC1)C(Cl)(Cl)Cl (configuration not stated) ... inactive

Query block: # fetch the recorded call for CC(C)(C)C(O)C(Oc1ccc(-c2ccccc2)cc1)n1cncn1 (configuration not stated) here
Result block: inactive

Query block: # fetch the recorded call for CNC(=O)Oc1cc(C)c(SC)c(C)c1 here
Result block: active

###

# method summary: ATG_GATA_CIS: Attagene CIS-FACTORIAL HepG2 Assay for human GATA Binding Protein (AID 2282944)
# conditions used: HepG2 GATA cis-element reporter, Attagene multiplex mRNA; actives raise or lower the signal
Calls of active or inactive are those of the source. Rule for the calls: active = hit-call score of the fitted dose curve at least 0.9, where 1 is the maximum; inactive = score below 0.9.
Select the matching outcome among active, inactive

Example cases with answers are listed next.
CCOC(=O)C1OC1(C)c1ccccc1 (centres undefined) ... inactive
COC(C)(C)CCC[C@H](C)C/C=C/C(C)=C/C(=O)OC(C)C ... inactive
SCc1ccco1 ... inactive
CCNCC ... inactive
C=C(Cl)CCl ... inactive

Query block: # fetch the recorded call for O=[N+]([O-])c1cc(C(F)(F)F)c(Cl)c([N+](=O)[O-])c1Cl here
Result block: inactive

Query block: # fetch the recorded call for [Cl-].[Cl-].[Cl-].[Yb+3] here
Result block: inactive

###

# method summary: ATG_AP_1_CIS: Attagene CIS-FACTORIAL HepG2 Assay for human Activator Protein 1 (AP-1) (AID 2282931)
# conditions used: HepG2 Attagene cis-factorial AP-1 reporter mRNA; actives raise or lower the signal
# Protocol: ATG_CIS is a cell-based, multiplexed-readout assay that uses HepG2, a human liver cell line, with measurements taken at 24 hours after chemical dosing in a 24-well plate.ATG_AP_1_CIS is one of 52 assay component(s) measured or calculated from the ATG_CIS assay. […] This assay endpoint, ATG_AP_1_CIS, was analyzed with bidirectional fitting relative to DMSO as the negative control and baseline of activity. […]
Active and inactive are the calls of the source. How the source made its calls: active means hit-call score of the fitted dose curve at least 0.9, where 1 is the maximum; inactive means score below 0.9.
Select the matching outcome among yes (1) = active, no (0) = inactive

Query block: # fetch the recorded call for CC(=O)C=Cc1ccccc1 here
Result block: yes (1)

Query block: # fetch the recorded call for CCCC=NO here
Result block: no (0)

Query block: # fetch the recorded call for CCC(C)c1cc([N+](=O)[O-])cc([N+](=O)[O-])c1OC(=O)C=C(C)C (centres undefined) here
Result block: yes (1)

Query block: # fetch the recorded call for CN(N=O)c1ccccc1 here
Result block: no (0)

Query block: # fetch the recorded call for CC(C)COP(=O)(OCC(C)C)OCC(C)C here
Result block: no (0)

Query block: # fetch the recorded call for CN(C)C(=O)C(c1ccccc1)c1ccccc1 here
Result block: no (0)

Query block: # fetch the recorded call for CSc1nc(N=[N+]=[N-])nc(NC(C)C)n1 here
Result block: no (0)

Query block: # fetch the recorded call for CCCCOP(=O)(O)OCCCC here
Result block: no (0)

Query block: # fetch the recorded call for Nc1ccc(Cl)c(Cl)c1 here
Result block: no (0)

Query block: # fetch the recorded call for O=c1c2ccccc2c(=O)c2c1cc(Cl)c1[nH]c3c([nH]c12)c(Cl)cc1c(=O)c2ccccc2c(=O)c13 here
Result block: no (0)
